- experimentDescription: Retention time of the compound in 50 to 100% ACN/Water/0.1%TFA by RP-HPLC analysis
- Type: physicochemical
- appliedConditions: buffer
observationType: Retention_time (min)

Here are 5 molecules together with their reported answers.
// query // lookup Retention_time for "O=C(O)/C(Cc1ccc(O)c([N+](=O)[O-])c1)=N\Nc1nc(-c2ccc(Cl)c(Cl)c2)cs1"
// result 7.82

// query Same question for "O=C(O)/C(Cc1ccc(C(=O)O)cc1)=N\Nc1nc(-c2ccc(Cl)c(Cl)c2)cs1" please.
// result 8.13

// query Same question for "O=C(O)/C(Cc1ccccc1)=N\Nc1nc(-c2ccc(Cl)c(Cl)c2)cs1" please.
// result 10.56

// query Same question for "O=C(O)/C(Cc1ccccc1[N+](=O)[O-])=N/Nc1nc(-c2ccc(C3CCCCC3)cc2)cs1" please.
// result 12.013

// query Same question for "O=C(O)/C(Cc1ccc(F)c([N+](=O)[O-])c1)=N/Nc1nc(-c2ccc(Cl)c(Cl)c2)cs1" please.
// result 15.54

I. O=C(O)/C(Cc1ccccc1[N+](=O)[O-])=N/Nc1nc(-c2ccc3ccccc3c2)cs1
II. O=C(O)/C(Cc1ccc(C(F)(F)F)cc1)=N\Nc1nc(-c2ccc(Cl)c(Cl)c2)cs1
// query Kindly identify the item with the lower Retention_time figure among these two: I and II Write down the label attached to your selection.
// result I
(I: 7.27 min, II: 10.53 min)
